Cited source: PubChem BioAssay (NCI)

Listed here: compounds with reported GI50 for U251 CNS.

compound: CC(N)(Cc1c[nH]c2ccccc12)C(=O)O (centres undefined)
study_system: U251 CNS
GI50: > 2500 µM
//
compound: COc1ccccc1-c1ccc2nc(NC(=O)Nc3cc(C(F)(F)F)cc(C(F)(F)F)c3)sc2c1
study_system: U251 CNS
GI50: 2.31 µM
//
compound: Cc1cc(C(=O)N[C@@H](CCC(=O)O)C(=O)O)sc1CC[C@@H]1CNc2nc(N)[nH]c(=O)c2C1
study_system: U251 CNS
GI50: 0.0274 µM
//
compound: O=C(Nc1ccc(Cl)cc1F)c1cc(F)ccc1O
study_system: U251 CNS
GI50: 0.832 µM
